Data credit: patent US9296741B2

# TESTED SYSTEM: human BRD4 first bromodomain (BDI_K57-E168) (Homo sapiens (Human))
# MEASUREMENT DESCRIPTION: TR-FRET bromodomain binding assay, BRD4 first bromodomain
MEASURED METRIC: Ki (nM)

SMILES	TESTED SYSTEM	MEASURED METRIC	RECORDED MEASUREMENT
CCS(=O)(=O)N1CCN(C(=O)c2ccc(Oc3ccc(F)cc3F)c(-c3cn(C)c(=O)c4[nH]ccc34)c2)CC1	human BRD4 first bromodomain (BDI_K57-E168) (Homo sapiens (Human))	Ki	68.7

(a) Cn1cc(-c2cc(NS(C)(=O)=O)ccc2Oc2ccc(F)cc2F)c2cc[nH]c2c1=O
(b) Cn1cc(-c2cc(C(=O)NCC(F)F)ccc2Oc2ccccc2)c2cc[nH]c2c1=O
In: Input pair: a , b . Output: entry with lower Ki. Write down the label of the entry you select.
Out: a
(a: 2.5 nM, b: 4.3 nM)
